koff overview
biological target: human TIM-3 coupled to Fc (human, UniProt Q8TDQ0 22-200); test: SPR; culture supernatant
Enter your answer as a number in s⁻¹; do not include the unit.

The following binders have reported results that may help.
>  <binder>
anti-TIM-3 antibody clone 1H10 (antibody, V domains shown) VH: QVQLQQWGAGLLKPSETLSLTCAVYGGSFSGYYWSWIRQPPGKGLEWIGEINHSGSTNYNPSLKSRVTISVDTSKNQFSLKLSSVTAADTAVYYCARGYVAGFDSWGQGTLVTVSS VL: QSVLTQPPSVSAAPGQKVTISCSGSSSNIGNNYVSWYQQLPGTAPKLLIYGNNWRPSGIPDRFSGSKSGTSATLGITGLQTGDEADYYCDSWDYDYAAGVFGGGTKLTVL

>  <koff, s⁻¹>
2.9e-05

$$$$
>  <binder>
anti-TIM-3 antibody clone 2C7 (antibody, V domains shown) VH: QVQLQQWGAGLLKPSETLSLTCAVYGGSFSGYYWSWIRQPPGKGLEWIGEINHSGSTNYNPSLKSRVTISVDTSKNQFSLKLSSVTAADTAVYYCARGYVAGYDYWGQGTLVTVSS VL: QSVLTQPPSVSAAPGQKVTISCSGSSSNIGNNYVSWYQQLPGTAPKLLIYGNNWRPSGIPDRFSGSKSGTSATLGITGLQTGDEADYYCDSWDSYLAAGVFGGGTKLTVL

>  <koff, s⁻¹>
0.00021

$$$$
>  <binder>
anti-TIM-3 antibody clone 1D9 (antibody, V domains shown) VH: QVQLQQWGAGLLKPSETLSLTCAVYGGSFSGYYWSWIRQPPGKGLEWIGEINHSGSTNYNPSLKSRVTISVDTSKNQFSLKLSSVTAADTAVYYCARGYYAGDDYWGQGTLVTVSS VL: QSVLTQPPSVSAAPGQKVTISCSGSSSNIGNNYVSWYQQLPGTAPKLLIYGNNWRPSGIPDRFSGSKSGTSATLGITGLQTGDEADYYCEAWDSAYAAGSFGGGTKLTVL

>  <koff, s⁻¹>
0.00018

$$$$

Ask | Report measured koff; entry is anti-TIM-3 antibody clone 1B9 (antibody, V domains shown) VH: QVQLQQWGAGLLKPSETLSLTCAVYGGSFSGYYWSWIRQPPGKGLEWIGEINHSGSTNYNPSLKSRVTISVDTSKNQFSLKLSSVTAADTAVYYCARGYVAGSDAWGQGTLVTVSS VL: QSVLTQPPSVSAAPGQKVTISCSGSSSNIGNNYVSWYQQLPGTAPKLLIYGNNWRPSGIPDRFSGSKSGTSATLGITGLQTGDEADYYCEAWDYYVAAGYFGGGTKLTVL
Reply | 4.3e-05

Ask | Report measured koff; entry is anti-TIM-3 antibody clone 2F4 (antibody, V domains shown) VH: QVQLQQWGAGLLKPSETLSLTCAVYGGSFSGYYWSWIRQPPGKGLEWIGEINHSGSTNYNPSLKSRVTISVDTSKNQFSLKLSSVTAADTAVYYCARGYVAGSDAWGQGTLVTVSS VL: QSVLTQPPSVSAAPGQKVTISCSGSSSNIGNNYVSWYQQLPGTAPKLLIYGNNWRPSGIPDRFSGSKSGTSATLGITGLQTGDEADYYCESWDYDYASGVFGGGTKLTVL
Reply | 8.7e-05
